Where do these numbers come from? They come from PubChem BioAssay (NCI).

Test system: BT-549 breast
Assay protocol: NCI tumour cell line growth inhibition, 48 h

Molecule | Assay target | TGI
Nc1ncc(-c2ccc(C(F)(F)F)cc2)c(NC2CCCCCC2)n1 | BT-549 breast | > 100 µM
CCOc1cc2ncc(C#N)c(Nc3ccc(F)c(Cl)c3)c2cc1NC(=O)/C=C/CN(C)C | BT-549 breast | > 7.78 µM
NC1CCC[C@@H](O)[C@H]1O (some centres undefined) | BT-549 breast | > 100 µM
O=C(Nc1ccc(Nc2ccncc2)cc1)c1ccc(Nc2ccnc3ccc([N+](=O)[O-])cc23)cc1 | BT-549 breast | > 100 µM
CCCCN(CCCC)c1ccc(N=Nc2ccc(S(=O)(=O)O)cc2)cc1 | BT-549 breast | > 100 µM
O=C1CNc2cc(N3CCN(c4cccc(C(F)(F)F)c4)CC3)ccc2N1 | BT-549 breast | > 100 µM
N#C[C@](CO)(NC(=O)OCc1ccccc1)C(F)F | BT-549 breast | > 100 µM
CC(=O)NC1CCC(NC(=O)OC(C)(C)C)C(NC(=O)OC(C)(C)C)C1 (centres undefined) | BT-549 breast | > 100 µM
O=c1[nH]nc2c3c(cccc13)NC(CN1Cc3ccccc3C1)=N2 | BT-549 breast | > 100 µM
Cc1ccc(NNc2cc(=O)[nH]c(=O)[nH]2)cc1Cl | BT-549 breast | > 100 µM
CC1C=C(NCC2(CO)CCC2)NC(N)=N1 (centres undefined) | BT-549 breast | > 100 µM
CNC(=O)CNC(=O)CCC(=O)N(C)C | BT-549 breast | > 100 µM
C#CCSc1cnc2ccccc2c1Sc1c[nH]c2ccccc2c1=O | BT-549 breast | > 100 µM
C=CCN1C(=O)/C(=C/c2cccs2)N=C1SC1OC(COC(=O)c2ccccc2)C(OC(=O)c2ccccc2)C1OC(=O)c1ccccc1 (centres undefined) | BT-549 breast | > 100 µM
COc1cc(-c2cn(-c3ccc(Cl)cc3)c(=O)[nH]2)cc(OC)c1OC | BT-549 breast | > 100 µM
CN1CCN(Cc2ccc(NC(=O)c3[nH]ncc3Nc3ncnc4c3CCC4)cc2)CC1 | BT-549 breast | 6.97 µM
c1ccc2c(Cc3c[nH]c4ccccc34)c[nH]c2c1 | BT-549 breast | 36.8 µM
Cc1ccnc2c1c(=O)c1ccccc1n2C | BT-549 breast | 81.9 µM
NNC(=O)CCCCCCCC(=O)O | BT-549 breast | > 100 µM
O=[N+]([O-])c1cc(Br)cc2c1[nH]c1ccc(Br)cc12 | BT-549 breast | 58 µM
Cc1ccc(NC2=C(Sc3ccc(Cl)cc3)C(=O)N(Cc3ccccc3)C2=O)cc1Cl | BT-549 breast | 24 µM
O=[N+]([O-])/C(C(Cl)=C(Cl)Cl)=C(/Sc1ccccc1)N1CCOCC1 | BT-549 breast | 15 µM
COc1ccc(CN=C2Nc3ccncc3S(=O)(=O)N2c2ccccc2)cc1 | BT-549 breast | 89.4 µM
COc1cc(/C=C2\CCc3cc(OC)c(OC)cc3C2=O)cc(OC)c1 | BT-549 breast | 65.8 µM
CC1CSc2nc3[nH]c(=S)[nH]c3c(=O)n2C1 (centres undefined) | BT-549 breast | > 100 µM
O=C(c1cc(-c2cc3c(cc2C(=O)N2Cc4ccccc4C[C@H]2CN2CCOCC2)OCO3)n2c1CCCC2)N(c1ccccc1)c1ccc(O)cc1 | BT-549 breast | > 100 µM
Cc1ccc2c(=O)[nH]sc2c1 | BT-549 breast | 30 µM
CCc1oc2ccccc2c1C(=O)c1cc(Br)c(O)c(Br)c1 | BT-549 breast | 71.4 µM
CSCCCNC(=O)c1csc([C@@H](CSC)NC(=O)CCNC(=O)[C@@H](NC(=O)OCC(Br)(Br)Br)C(C)O)n1 (some centres undefined) | BT-549 breast | > 100 µM
C=C(CN1CCN(c2ccccc2F)CC1)c1ccc(C(=O)Nc2ccccc2N)cc1 | BT-549 breast | 8.82 µM
O=C(O)c1cc2c(cc1S(=O)(=O)O)C1C(C3C2C2(Cl)C(Cl)=C(Cl)C3(Cl)C2(Cl)Cl)C2(Cl)C(Cl)=C(Cl)C1(Cl)C2(Cl)Cl (centres undefined) | BT-549 breast | > 100 µM
CCS(=O)(=O)c1ccc(OC)c(Nc2nccc(N(C)c3ccc4c(C)[nH]nc4c3)n2)c1 | BT-549 breast | 14.5 µM
C=CCOc1ccc(C2c3c([nH][nH]c3=O)CC(C)(O)C2C(=O)OC)cc1OC (centres undefined) | BT-549 breast | > 100 µM
O=C(COC(=O)c1ccccc1)c1ccc(Br)cc1 | BT-549 breast | 21.1 µM
